Reported pIC50 values follow for various compounds
Tested on: human prostate PC3 cancer cells
Assay: MTT assay, in vitro cytotoxicity / cell growth inhibition on PC3 cells
Assay type: cell-based
Conditions: 72 h exposure, MTT, read-out: IC50 (concentration of sample required to reduce the cell growth of tumor cell line by 50%)
# reply with the number alone; pIC50 is -log10 of concentration in mol/L

Kindly note the recorded pIC50 for NC1CCCCC1N.NCCCN.[Au+3].[Cl-].[Cl-].[Cl-] (racemic) , which is 4.99

Kindly note the recorded pIC50 for N.N.[Cl][Pt][Cl] [Cisplatin, reference compound] , which is 5.96

Every entry's value here was drawn from patent US9585861B1.
